Species on record: Rattus norvegicus
Assay: Open TG-GATES - Regimen: Single
Type: toxicity, organism-based, Sprague-Dawley
Set-up: regimen Single, gender Male, age 6 weeks
Settings: in vivo, po, 0 mg/kg, 6 h, tissue Plasma, route gavage, dose level Control
measure: gamma-GTP (IU/L)
Respond numerically; units are IU/L and should not be typed.

// query gamma-GTP value for entry CN(C)CCN(Cc1cccs1)c1ccccn1
1

// query gamma-GTP value for entry CCOC(=O)CCC(=O)O[C@H]1[C@H](O[C@@H]2[C@@H](C)[C@H](O[C@H]3C[C@@](C)(OC)[C@@H](O)[C@H](C)O3)[C@@H](C)C(=O)O[C@H](CC)[C@@](C)(O)[C@H](O)[C@@H](C)C(=O)[C@H](C)C[C@@]2(C)O)O[C@H](C)C[C@@H]1N(C)C [ERYTHROMYCIN ETHYLSUCCINATE]
1.2

// query gamma-GTP value for entry NC(N)=Nc1nc(CSCCC(N)=NS(N)(=O)=O)cs1 [FAMOTIDINE]
1

// query gamma-GTP value for entry NNC(=O)c1ccncc1 [ISONIAZID]
1.2

// query gamma-GTP value for entry COc1ccc2[nH]c([S+]([O-])Cc3ncc(C)c(OC)c3C)nc2c1 (stereo not drawn) [OMEPRAZOLE]
1.8

// query gamma-GTP value for entry CN(C)CCCN1c2ccccc2CCc2ccccc21 [IMIPRAMINE]
1.2

// query gamma-GTP value for entry CN(C)CCCN1c2ccccc2CCc2ccc(Cl)cc21 [CLOMIPRAMINE]
1

// query gamma-GTP value for entry COC1=CC(=O)C[C@@H](C)[C@]12Oc1c(Cl)c(OC)cc(OC)c1C2=O [GRISEOFULVIN]
1.2

###

For each of the molecules below, state its Ht.
Species on record: Rattus norvegicus
Test: Open TG-GATES - Regimen: Daily Repeat
Assay type: toxicity, organism-based, Sprague-Dawley
Set-up: regimen Daily Repeat, gender Male, age 6 weeks
Conditions: in vivo, po, 10 mg/kg, […], tissue Blood, route gavage, dose level Low, time 14 day
Respond numerically; units are % and should not be typed.

// query Ht value for entry CC(C)OC(=O)C(C)(C)Oc1ccc(C(=O)c2ccc(Cl)cc2)cc1 [FENOFIBRATE]
42.6

// query Ht value for entry CN(C)CCN(Cc1cccs1)c1ccccn1
42.1

// query Ht value for entry CN(C)CCCN1c2ccccc2CCc2ccccc21
41.8

// query Ht value for entry CC1=C(/C=C/C(C)=C/C=C/C(C)=C/CO)C(C)(C)CCC1
40.6

###

Organism: Rattus norvegicus
Assay: Open TG-GATES - Regimen: Single
Format: toxicity, organism-based, Sprague-Dawley
Parameters: regimen Single, gender Male, age 6 weeks
Settings: in vivo, po, 300 mg/kg, 3 h, tissue Plasma, route gavage, dose level Middle
measure: BUN (mg/dL)
Respond numerically; units are mg/dL and should not be typed.

// query BUN value for entry COc1ccc2[nH]c([S+]([O-])Cc3ncc(C)c(OC)c3C)nc2c1 (centres undefined) [OMEPRAZOLE]
10.2

// query BUN value for entry CCOC(=O)CCC(=O)O[C@H]1[C@H](O[C@@H]2[C@@H](C)[C@H](O[C@H]3C[C@@](C)(OC)[C@@H](O)[C@H](C)O3)[C@@H](C)C(=O)O[C@H](CC)[C@@](C)(O)[C@H](O)[C@@H](C)C(=O)[C@H](C)C[C@@]2(C)O)O[C@H](C)C[C@@H]1N(C)C [ERYTHROMYCIN ETHYLSUCCINATE]
11.6

// query BUN value for entry COC1=CC(=O)C[C@@H](C)[C@]12Oc1c(Cl)c(OC)cc(OC)c1C2=O [GRISEOFULVIN]
11.2

// query BUN value for entry NC(N)=Nc1nc(CSCCC(N)=NS(N)(=O)=O)cs1 [FAMOTIDINE]
9.6

###

For each of the compounds below, state its TERMINAL_BW.
Species: Rattus norvegicus
Experiment: Open TG-GATES - Regimen: Single
Assay type: toxicity, organism-based, Sprague-Dawley
Parameters: regimen Single, gender Male, age 6 weeks
Conditions: in vivo, po, 300 mg/kg, 6 h, route gavage, dose level Middle
Respond numerically; units are g and should not be typed.

// query TERMINAL_BW value for entry CCOC(=O)CCC(=O)O[C@H]1[C@H](O[C@@H]2[C@@H](C)[C@H](O[C@H]3C[C@@](C)(OC)[C@@H](O)[C@H](C)O3)[C@@H](C)C(=O)O[C@H](CC)[C@@](C)(O)[C@H](O)[C@@H](C)C(=O)[C@H](C)C[C@@]2(C)O)O[C@H](C)C[C@@H]1N(C)C [ERYTHROMYCIN ETHYLSUCCINATE]
216.3

// query TERMINAL_BW value for entry NC(N)=Nc1nc(CSCCC(N)=NS(N)(=O)=O)cs1
211.7

// query TERMINAL_BW value for entry COc1ccc2[nH]c([S+]([O-])Cc3ncc(C)c(OC)c3C)nc2c1 (centres undefined)
217.5

// query TERMINAL_BW value for entry COC1=CC(=O)C[C@@H](C)[C@]12Oc1c(Cl)c(OC)cc(OC)c1C2=O
212.5

###

Organism: Rattus norvegicus
Experiment: Open TG-GATES - Regimen: Single
Format: toxicity, organism-based, Sprague-Dawley
Set-up: regimen Single, gender Male, age 6 weeks
Conditions: in vivo, po, 0 mg/kg, 3 h, tissue Blood, route gavage, dose level Control
measure: APTT (s)
Respond numerically; units are s and should not be typed.

// query APTT value for entry CC/C(=C(\c1ccccc1)c1ccc(OCCN(C)C)cc1)c1ccccc1
16.9

// query APTT value for entry O=C(CCCN1CCC(O)(c2ccc(Cl)cc2)CC1)c1ccc(F)cc1
16.5

// query APTT value for entry CCOC(=O)CCC(=O)O[C@H]1[C@H](O[C@@H]2[C@@H](C)[C@H](O[C@H]3C[C@@](C)(OC)[C@@H](O)[C@H](C)O3)[C@@H](C)C(=O)O[C@H](CC)[C@@](C)(O)[C@H](O)[C@@H](C)C(=O)[C@H](C)C[C@@]2(C)O)O[C@H](C)C[C@@H]1N(C)C [ERYTHROMYCIN ETHYLSUCCINATE]
23.2

// query APTT value for entry CCCNC(=O)NS(=O)(=O)c1ccc(Cl)cc1 [CHLORPROPAMIDE]
16.5

// query APTT value for entry CN(C)CCCN1c2ccccc2CCc2ccccc21
16.9

// query APTT value for entry NC(N)=Nc1nc(CSCCC(N)=NS(N)(=O)=O)cs1
20.1

// query APTT value for entry CC1=C(/C=C/C(C)=C/C=C/C(C)=C/CO)C(C)(C)CCC1
22

// query APTT value for entry CN(C)CCCN1c2ccccc2CCc2ccc(Cl)cc21
23.8

###

Species on record: Rattus norvegicus
Test: Open TG-GATES - Regimen: Single
Format: toxicity, organism-based, Sprague-Dawley
Set-up: regimen Single, gender Male, age 6 weeks
Settings: in vivo, po, 1000 mg/kg, 9 h, tissue Blood, route gavage, dose level High
For each of the molecules below, state its MCHC.
Respond numerically; units are % and should not be typed.

// query MCHC value for entry COC1=CC(=O)C[C@@H](C)[C@]12Oc1c(Cl)c(OC)cc(OC)c1C2=O
34.3

// query MCHC value for entry CC(C)OC(=O)C(C)(C)Oc1ccc(C(=O)c2ccc(Cl)cc2)cc1 [FENOFIBRATE]
32.3

// query MCHC value for entry NC(N)=Nc1nc(CSCCC(N)=NS(N)(=O)=O)cs1
35.9

// query MCHC value for entry CCOC(=O)CCC(=O)O[C@H]1[C@H](O[C@@H]2[C@@H](C)[C@H](O[C@H]3C[C@@](C)(OC)[C@@H](O)[C@H](C)O3)[C@@H](C)C(=O)O[C@H](CC)[C@@](C)(O)[C@H](O)[C@@H](C)C(=O)[C@H](C)C[C@@]2(C)O)O[C@H](C)C[C@@H]1N(C)C [ERYTHROMYCIN ETHYLSUCCINATE]
33.1

// query MCHC value for entry COc1ccc2[nH]c([S+]([O-])Cc3ncc(C)c(OC)c3C)nc2c1 (stereo not given)
34.6

###

Species: Rattus norvegicus
Experiment: Open TG-GATES - Regimen: Single
Type: toxicity, organism-based, Sprague-Dawley
Parameters: regimen Single, gender Male, age 6 weeks
Details: in vivo, po, 300 mg/kg, 24 h, tissue Plasma, route gavage, dose level Middle
measure: TC (mg/dL)
Respond numerically; units are mg/dL and should not be typed.

// query TC value for entry COC1=CC(=O)C[C@@H](C)[C@]12Oc1c(Cl)c(OC)cc(OC)c1C2=O
76.8

// query TC value for entry NC(N)=Nc1nc(CSCCC(N)=NS(N)(=O)=O)cs1
82.8

// query TC value for entry CCOC(=O)CCC(=O)O[C@H]1[C@H](O[C@@H]2[C@@H](C)[C@H](O[C@H]3C[C@@](C)(OC)[C@@H](O)[C@H](C)O3)[C@@H](C)C(=O)O[C@H](CC)[C@@](C)(O)[C@H](O)[C@@H](C)C(=O)[C@H](C)C[C@@]2(C)O)O[C@H](C)C[C@@H]1N(C)C [ERYTHROMYCIN ETHYLSUCCINATE]
75.2

// query TC value for entry COc1ccc2[nH]c([S+]([O-])Cc3ncc(C)c(OC)c3C)nc2c1 (centres undefined)
72

The reported measurements were obtained from ChEMBL document CHEMBL3885861.
